FYI, the data here is from patent US20170253656A1.

Biological target: T1, hu-CD74 antigen (R&D SYSTEMS catalog #3590-CD-050) (human, UniProt P04233-2 73-232, limits assumed)
T1 construct: Bought antigen; also called rhCD74; human CD74
T1 sequence (looked up): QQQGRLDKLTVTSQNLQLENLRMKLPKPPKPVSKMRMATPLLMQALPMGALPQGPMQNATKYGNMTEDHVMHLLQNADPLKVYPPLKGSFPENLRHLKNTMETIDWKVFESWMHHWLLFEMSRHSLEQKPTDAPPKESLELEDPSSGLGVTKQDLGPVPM
Test: SPR (Biacore T200), captured on anti-human Fc, rhCD74 analyte
experimental_readout: pKd
Keep it numeric: pKd is minus log10 of the concentration in mol/L.

1251-A06 heavy chain paired with VL SEQ ID NO: 272 (antibody, V domains shown) VH: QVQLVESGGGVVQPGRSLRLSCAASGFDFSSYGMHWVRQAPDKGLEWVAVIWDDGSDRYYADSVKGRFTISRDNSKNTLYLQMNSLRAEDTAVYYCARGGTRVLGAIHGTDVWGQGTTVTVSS VL: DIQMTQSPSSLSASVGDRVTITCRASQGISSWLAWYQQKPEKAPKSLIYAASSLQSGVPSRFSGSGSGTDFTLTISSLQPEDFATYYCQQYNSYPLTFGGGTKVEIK : 9.94

Note: attention shifts to another entry.
Exercise: Item 1251-A03 heavy chain paired with VL SEQ ID NO: 272 (antibody, V domains shown) VH: QVQLVESGGGVVQPGRSLRLSCAASGFAFSDHGMHWVRQAPDKGLEWVAVIWYDGSHKIYADSVKGRFTISRDNSKNTLYLQMNSLRAEDTAVYYCARGGSLAGGAVYGTDVWGQGTTVTVSS VL: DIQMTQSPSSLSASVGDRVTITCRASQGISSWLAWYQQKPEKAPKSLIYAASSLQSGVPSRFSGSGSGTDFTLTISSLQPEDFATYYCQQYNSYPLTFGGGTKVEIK has what recorded pKd?
Solution: 9.74
